Provenance of the data: patent US12240857B2

Below is a list of entries, each paired with its recorded EC50 value.
- System: EBOV mucin-domain-deleted glycoprotein pseudotyped VSV
- protocol summary: microbe, parasite or virus in culture
- Assay type: cell-based, Zaire ebolavirus
- condition summary: Zaire ebolavirus, Vero, 24 h, read-out: EC50 EBOV
Counter-ions that a name gives are not always drawn.
# include the unit after the value

Example entries begin here.
[[record]]
molecule = "CCC1CCCCN1CC(O)COCCC12CC3CC(CC(C3)C1)C2 (stereo not shown) [Example D9, hydrochloride]"
quantity_name = "EC50"
obs_value = "250 nM"

[[record]]
molecule = "NCCOc1ccc(C23CC4CC(CC(C4)C2)C3)cc1 [Example D34, 1-[4-(2-aminoethoxy)phenyl] adamantane]"
quantity_name = "EC50"
obs_value = "430 nM"

[[record]]
molecule = "CN(C)CCCNc1nc(C23CC4CC(CC(C4)C2)C3)cs1"
quantity_name = "EC50"
obs_value = "170 nM"


Here's the next entry for you.
Give EC50 for Nc1ccc(C23CC4CC(CC(C4)C2)C3)cc1 tested on EBOV mucin-domain-deleted glycoprotein pseudotyped VSV. 4200 nM
